- TEST_TARGET: T1, HLA-A*0201 on T2 cells (human)
- T1 construct: whole, on cells; also called HLA-A2
- ASSAY_PROTOCOL: T2 cell stability assay, flow cytometry
Square brackets hold non-standard residues; d marks the D form. Ends that are not written are not given here. Phg = N[C@H](C(=O)O)c1ccccc1
The binders listed here are annotated with their Stability (T1/2).
PROPERTY_MEASURED: Stability (T1/2) (h)

[[record]]
binder = "FVSEKIFFV [SSX2 41-49 (K41F, A42V, Y48F)]"
modifier_sign = "="
result = 20

[[record]]
binder = "FVSEKIF[Phg]V (also called FVSEKIF(Phg)V) [SSX2 41-49 (K41F, A42V, Y48Phg)]"
modifier_sign = ">"
result = 24

[[record]]
binder = "FVSEKVFYV [SSX2 41-49 (K41F, A42V, I46V)]"
modifier_sign = "="
result = 24

[[record]]
binder = "FVSEKIFTV [SSX2 41-49 (K41F, A42V, Y48T)]"
modifier_sign = "="
result = 24


Hello, the source for this data is patent US20070060518A1, in case you need it.
